Test system: female obese Zucker rats
assayInfo: Serum lipid and glycemic control variables in chow-fed obese female Zucker rats, daily oral gavage for two weeks
Assay type: in vivo, rat
settings: Rattus norvegicus, 168 h; 100 mg/kg daily oral, 1 wk; 100% = 2-fold increase; Table 8; read-out: TG, Percent Change from Pre-Treatment
Outcome label depends on change in vivo at 100 mg/kg relative to -80%: at/above gives 1, below gives -1.

Use the examples below as a reference point.
compound	labelValue
O=C(CCCCCC1(C(=O)O)CCCC1)CCCCCC1(C(=O)O)CCCC1 [Compound 107m]	1
CC(C)(CCCCC(=O)CCCCC1(C(=O)O)CCC1)C(=O)O [Compound 107e]	1
CC(C)(CCCCC(=O)CCCCC1(C(=O)O)CC1)C(=O)O [Compound 107c]	-1

input: Hi team, for O=C(CCCCCC1(C(=O)O)CC1)CCCCCC1(C(=O)O)CC1 [Compound 107l] , is the recorded change in vivo at 100 mg/kg at or above -80%?
output: -1

input: Hi team, for O=C(CCCCC1(C(=O)O)CCC1)CCCCC1(C(=O)O)CCC1 [Compound 107f] , is the recorded change in vivo at 100 mg/kg at or above -80%?
output: 1

input: Hi team, for O=C(CCCCC1(C(=O)O)CCCC1)CCCCC1(C(=O)O)CCCC1 [Compound 107g] , is the recorded change in vivo at 100 mg/kg at or above -80%?
output: 1

Data origin: patent US7304093B2
